Ref: patent US20120321614A1

Please go through the items and note down their Cellular Met Levels [% loss at 1.0 µg/ml].
molecular target: c-Met expressed on the surface of human A549 lung carcinoma cells (human, UniProt P08581 25-1390); experiment: cell-based or functional assay
Sequence (P08581 25-1390): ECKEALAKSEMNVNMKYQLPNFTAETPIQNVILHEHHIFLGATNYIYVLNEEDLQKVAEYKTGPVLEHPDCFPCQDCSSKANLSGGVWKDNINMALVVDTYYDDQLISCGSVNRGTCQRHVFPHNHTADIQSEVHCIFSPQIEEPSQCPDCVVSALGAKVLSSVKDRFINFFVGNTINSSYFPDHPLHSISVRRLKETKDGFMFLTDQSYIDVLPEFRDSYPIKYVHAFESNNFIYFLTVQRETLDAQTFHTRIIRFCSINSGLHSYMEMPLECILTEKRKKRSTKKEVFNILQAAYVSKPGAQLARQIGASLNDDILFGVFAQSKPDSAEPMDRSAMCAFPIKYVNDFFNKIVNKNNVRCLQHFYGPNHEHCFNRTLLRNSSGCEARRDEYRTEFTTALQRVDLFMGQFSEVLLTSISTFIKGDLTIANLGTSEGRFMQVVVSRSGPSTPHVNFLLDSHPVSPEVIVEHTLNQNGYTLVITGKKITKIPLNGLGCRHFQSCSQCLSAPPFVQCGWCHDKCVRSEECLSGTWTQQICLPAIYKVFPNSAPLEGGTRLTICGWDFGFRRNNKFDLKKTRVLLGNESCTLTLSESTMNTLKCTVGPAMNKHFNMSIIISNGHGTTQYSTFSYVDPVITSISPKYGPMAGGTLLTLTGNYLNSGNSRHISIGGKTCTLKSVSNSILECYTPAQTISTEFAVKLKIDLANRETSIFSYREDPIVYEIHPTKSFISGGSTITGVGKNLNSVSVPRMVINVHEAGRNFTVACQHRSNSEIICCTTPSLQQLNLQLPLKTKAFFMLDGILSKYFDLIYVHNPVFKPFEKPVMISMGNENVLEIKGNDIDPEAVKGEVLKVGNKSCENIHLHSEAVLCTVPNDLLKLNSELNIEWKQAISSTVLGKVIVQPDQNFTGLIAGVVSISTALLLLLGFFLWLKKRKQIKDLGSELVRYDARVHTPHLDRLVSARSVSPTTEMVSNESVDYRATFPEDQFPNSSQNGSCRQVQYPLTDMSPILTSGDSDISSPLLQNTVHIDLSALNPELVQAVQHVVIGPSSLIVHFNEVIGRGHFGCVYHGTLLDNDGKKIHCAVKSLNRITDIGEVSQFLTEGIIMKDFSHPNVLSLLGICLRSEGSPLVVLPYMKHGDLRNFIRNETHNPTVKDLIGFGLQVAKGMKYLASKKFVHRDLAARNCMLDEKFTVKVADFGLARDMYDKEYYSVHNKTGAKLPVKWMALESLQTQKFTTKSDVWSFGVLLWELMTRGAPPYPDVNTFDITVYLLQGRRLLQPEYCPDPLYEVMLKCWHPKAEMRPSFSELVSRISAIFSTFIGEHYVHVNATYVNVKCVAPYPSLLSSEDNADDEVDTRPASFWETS
Response body: numeric value in % loss at 1.0 µg/ml, unit text excluded.

Q: Quick one: Cellular Met Levels [% loss at 1.0 µg/ml] of anti-c-Met monoclonal antibody 8.90.3 (antibody, V domains shown, Human IgG2 kappa) VH: EVQLVESGGGLVQPGGSLRLSCAASGFTFSRYSMNWVRQAPGKGLEWVSYISSRSSTIYYADSVKGRFTMSRDNAKNSLYMQMNSLRDEDTAVYYCGYGDYDYFDYWGQGTLVTVSS VL: DIQMTQSPSSVSASVGDRVIITCRASQGISSWLAWYQQKPGKAPKLLIYAASSLKSGVPSRFSGSGSGTDFTVTISSLQPEDFATYYCQQSNSLPWTFGQGTKVEIKR ?
Result: 17.5

Q: Quick one: Cellular Met Levels [% loss at 1.0 µg/ml] of anti-c-Met monoclonal antibody 9.1.2 (antibody, V domains shown, Human IgG2 kappa; also called hybridoma 9.1.2 (LN 15884); PTA-5027) VH: QVQLQESGPGLVKPSQTLSLTCTVSGGSISSGGYYWSWIRQHPGKGLEWIGYIYYSGSTYYNPSLKSRVTISVDTSKNQFSLKLSSVTAADTAVYYCARDGPLGYCSSTSCPVTGEYYYYGMDVWGQGTTVTVSS VL: EIVLTQSPGTLSLSPGERATLSCRASQSVSNNYLAWYQQKPGQAPRLLIFGASSRATGIPDRFSGSGSGTDFTLTISRLEPEDFAVYYCQQYDISPMYSFGQGTKLEMKR ?
Result: 46.9

Q: Quick one: Cellular Met Levels [% loss at 1.0 µg/ml] of anti-c-Met monoclonal antibody 13.3.2L-A91T, H-E42K, S97T (antibody, human IgG2, kappa, V domains shown, positions 42, 97, 14 and 91 count from the N-terminal amino acid and may not count on the entry with its leader) VH: QVQLVQSGAEVKKPGASVKVSCKASGYTFTSYGFSWVRQAPGQGLEWMGWISASNGNTYYAQKLQGRVTMTTDTSTSTAYMELRSLRSDDTAVYYCARVYADYADYWGQGTLVTVSS VL: DIQMTQSPSSVSASVGDRVTITCRASQGINTWLAWYQQKPGKAPKLLIYAASSLKSGVPSRFSGSGSGTDFTLTISSLQPEDFATYYCQQANSFPLTFGGGTKVEIKR ?
Result: 28.5

Q: Quick one: Cellular Met Levels [% loss at 1.0 µg/ml] of anti-c-Met monoclonal antibody 8.70.2 (antibody, V domains shown, Human IgG2 kappa; also called hybridoma 8.70.2 (LN 15885); PTA-5028) VH: QLQLQESGPGLVKPSETLSLTCTVSGGSISSSSYYGGWIRQPPGKGLDWIGSIYYSGNTYYNPSLKSRVTISVDTSKNQFSLKLSSVTAADTAVYYCARHSWDYFDYWDQGTLVTVSS VL: DIQMTQSPSSVSASVGDRVTITCRASQGISSWLAWYQQKPGKAPKLLIYAASSLQSGVPSRFSGSGSGTDFTLTISSLQSEDFATYYCQQANSFPITFGPGTKVEIKR ?
Result: 11
